Reference source for all entries: the supplement of paper PMC10567573

B1: RAB11A (parent)
chain: AVPTDEARAFAEKNGLSFIETSAL

Variants of: B1
Assay: protein stability index of a GFP-peptide fusion (GPS, HEK-293T) (PSI 1-6); higher = more stable;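 also: lentivirally expressed fusions sorted by FACS into six bins by GFP to DsRed ratio, PSI derived from sequencing read proportions per bin multiplied by bin number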
Settings: c terminus: a fixed tail appended
Record form. Attribute: protein stability index. Fill in for each entry.
Numbers only.

Study these solved cases before continuing.
K13L : 2.17
D5I : 2.04
D5V : 2.05
A23T : 2.08

Quick batch: protein stability index for everything below.
1. D5E
2. A1S

1. 2.35
2. 2.56

Fill blank: measured protein stability index of the variant "E6V" is ____. 1.83
